Values were extracted from patent US20170166555A1.

System: A549 non-small cell lung carcinoma cells
Test: Anti-proliferative assay, cell-titre luminescent reagent, 72 h (GVK-BIO)
Assay type: cell-based
Conditions: Homo sapiens, A549, 72 h, 30, 10, 3, 1, 0.3 and 0.1 μM, nonlinear regression (Table 5), read-out: IC50/μM Lung (NSLC) A549

| compound | targetSystem | boundType | IC50 (µM) |
| --- | --- | --- | --- |
| COc1cccc(CCN2CCN(Cc3ccc4c(c3)c(C)c(C)n4CCCN3CCN(C)CC3)CC2)c1 [Compound 4115] | A549 non-small cell lung carcinoma cells | = | 8.8 |
| CN(C)CCCn1ccc2cc(Oc3ccc(C(=O)Nc4ccc5c(c4)OCO5)cc3)ccc21 [Compound 4090] | A549 non-small cell lung carcinoma cells | = | 8.4 |
| Cc1c(C)n(CCCN(C)C)c2ccc(C(=O)N3CCN(CCc4ccc(O)cc4)CC3)cc12 [Compound 4119] | A549 non-small cell lung carcinoma cells | > | 30 |
| Cc1c(C)n(CCCN(C)C)c2ccc(CN3CCN(CCc4ccc(F)cc4)CC3)cc12 [Compound 4109] | A549 non-small cell lung carcinoma cells | = | 6.5 |
| Cc1c(C)n(CCCN2CCN(C)CC2)c2ccc(CN3CCN(CCc4ccccc4)CC3)cc12 [Compound 4117] | A549 non-small cell lung carcinoma cells | = | 8.6 |

====

Test system: SK-Mel-28 melanoma cells
Assay: Anti-proliferative assay, cell-titre luminescent reagent, 72 h (GVK-BIO)
Type: cell-based
Conditions: Homo sapiens, SK-MEL-28, 72 h, 30, 3, 0.3 and 0.03 μM, linear regression (Tables 2-4)
measureName: IC50 (µM)

| compound | targetSystem | measureUnit | observedMeasurement |
| --- | --- | --- | --- |
| Cc1c(C)n(CCCN(C)C)c2ccc(Oc3cccc(C(=O)Nc4ccc5c(c4)OCO5)c3)cc12 [Compound 4063] | SK-Mel-28 melanoma cells | µM | 3.8 |
| Cc1c(C)n(CCCN(C)C)c2ccc(Oc3ccc(C(=O)Nc4cccc(F)c4)cc3)cc12 [Compound 4096] | SK-Mel-28 melanoma cells | µM | 3.5 |
| COc1ccc(NC(=O)c2cccc(Nc3ccc4c(ccn4CCCN(C)C)c3)c2)cc1 [Compound 4068] | SK-Mel-28 melanoma cells | µM | 2.7 |
| CN(C)CCCn1ccc2cc(Nc3ccc(C(=O)Nc4cccc(F)c4)cc3)ccc21 [Compound 4102] | SK-Mel-28 melanoma cells | µM | 3.5 |

====

Tested on: SK-Mel-28 melanoma cells
Assay: Anti-proliferative assay, cell-titre luminescent reagent, 72 h (GVK-BIO)
Type: cell-based
Details: Homo sapiens, SK-MEL-28, 72 h, 30, 3, 0.3 and 0.03 μM, linear regression (Tables 2-4)
measureName: IC50 (µM)

| compound | observedMeasurement |
| --- | --- |
| COc1ccc(NC(=O)c2cccc(Cc3ccc4c(ccn4CCCN(C)C)c3)c2)cc1 [Compound 4046] | 1.9 |
| COc1cccc(NC(=O)c2cccc(Cc3ccc4c(c3)c(C)c(C)n4CCCN(C)C)c2)c1 [Compound 4054] | 4.1 |
| Cc1c(C)n(CCCN(C)C)c2ccc(CN3CCN(CCc4ccccc4)CC3)cc12 [Compound 4015] | 3.9 |
| CN(C)CCCn1ccc2cc(Cc3ccc(C(=O)Nc4ccccc4)cc3)ccc21 [Compound 4001] | 3.6 |
| Cc1c(C)n(CCCN(C)C)c2ccc(Nc3ccc(C(=O)Nc4ccc5c(c4)OCO5)cc3)cc12 [Compound 4106] | 2.6 |
